Origin of the recorded values: BindingDB's records for doi:10.1002/cmdc.201100077

targetSystem: Tyrosine-protein phosphatase non-receptor type 1 (Homo sapiens)
Sequence (P18031 whole entry): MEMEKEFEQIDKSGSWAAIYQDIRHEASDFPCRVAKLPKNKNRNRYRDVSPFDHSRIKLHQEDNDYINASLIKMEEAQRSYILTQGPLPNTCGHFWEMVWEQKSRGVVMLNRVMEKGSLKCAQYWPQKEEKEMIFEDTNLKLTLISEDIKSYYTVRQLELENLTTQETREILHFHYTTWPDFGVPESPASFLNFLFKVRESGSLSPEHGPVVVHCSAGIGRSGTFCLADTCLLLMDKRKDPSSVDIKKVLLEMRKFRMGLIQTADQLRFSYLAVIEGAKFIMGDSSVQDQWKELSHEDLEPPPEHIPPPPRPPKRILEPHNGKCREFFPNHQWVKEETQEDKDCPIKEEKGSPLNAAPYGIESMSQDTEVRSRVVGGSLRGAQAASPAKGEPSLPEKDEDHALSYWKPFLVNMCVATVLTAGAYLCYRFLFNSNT
Checkbox rule: IC50 lower than 5 nM = 1; IC50 not lower than 5 nM = -1.

O=C(c1ccccc1)C(Cc1ccc(C(F)(F)P(=O)(O)O)c(Br)c1)(Cc1ccc2cc(Br)c(C(F)(F)P(=O)(O)O)cc2c1)n1nnc2ccccc21 (stereo unspecified)	-1

Input line: Consider N[S+]([O-])C(F)(F)c1cc2nc(CC(Cc3ccc4cc(Br)c(C(F)(F)P(=O)(O)O)cc4n3)(C(=O)c3ccccc3)n3nnc4ccccc43)ccc2cc1Br (stereo unspecified) . Does its IC50 lie strictly below 5 nM?
Output line: 1

Input line: Consider N[S+]([O-])C(F)(F)c1ccc(CC(Cc2ccc3cc(Br)c(C(F)(F)P(=O)(O)O)cc3n2)(C(=O)c2ccccc2)n2nnc3ccccc32)cc1Br (stereo unspecified) . Does its IC50 lie strictly below 5 nM?
Output line: -1

Input line: Consider O=C1CC(c2ccc(CC(Cc3ccc4cc(Br)c(C(F)(F)P(=O)(O)O)cc4c3)(C(=O)c3ccccc3)n3nnc4ccccc43)cc2)S(=O)(=O)N1 (stereo unspecified) . Does its IC50 lie strictly below 5 nM?
Output line: -1

Input line: Consider N[S+]([O-])C(F)(F)c1cc2cc(CC(Cc3ccc4cc(Br)c(C(F)(F)P(=O)(O)O)cc4c3)(C(=O)c3ccccc3)n3nnc4ccccc43)ccc2cc1Br (stereo unspecified) . Does its IC50 lie strictly below 5 nM?
Output line: 1
